# Experimental target: the molecule itself
# Procedure details: SEC-MALLS; Superdex 75 or 200 10/300 GL Increase; 20 mM HEPES pH 7.5, 150 mM NaCl, 0.5 mM TCEP, 3 mM NaN3; 25 °C; 100 μl samples at multiple concentrations (5, 3, 2 and 1 mg/ml in Fig. 1b)
Observation type: stoichiometry N

protein="human TRIM2 tripartite motif RBCC (2-316) (domain or fragment, UniProt Q9C040 2-316, looked up, human TRIM2, RBCC construct, residues 2-316; also called TRIM2 RBCC; source: E. coli BL21 (DE3), purified (Ni-NTA, His6 cleaved by HRV 3C, SEC); not shown: His6, N-terminal, cleaved) ASEGTNIPSPVVRQIDKQFLICSICLERYKNPKVLPCLHTFCERCLQNYIPAHSLTLSCPVCRQTSILPEKGVAALQNNFFITNLMDVLQRTPGSNAEESSILETVTAVAAGKPLSCPNHDGNVMEFYCQSCETAMCRECTEGEHAEHPTVPLKDVVEQHKASLQVQLDAVNKRLPEIDSALQFISEIIHQLTNQKASIVDDIHSTFDELQKTLNVRKSVLLMELEVNYGLKHKVLQSQLDTLLQGQESIKSCSNFTAQALNHGTETEVLLVKKQMSEKLNELADQDFPLHPRENDQLDFIVETEGLKKSIHNLG" observed=4
protein="human TRIM2 RING-B-box2 (2-156) (domain or fragment, UniProt Q9C040 2-156, looked up, human TRIM2, RB2 construct, residues 2-156; also called TRIM2 RB2; source: E. coli BL21 (DE3), purified (Ni-NTA, His6 cleaved by HRV 3C, SEC); not shown: His6, N-terminal, cleaved) ASEGTNIPSPVVRQIDKQFLICSICLERYKNPKVLPCLHTFCERCLQNYIPAHSLTLSCPVCRQTSILPEKGVAALQNNFFITNLMDVLQRTPGSNAEESSILETVTAVAAGKPLSCPNHDGNVMEFYCQSCETAMCRECTEGEHAEHPTVPLKD" observed=2
protein="human TRIM3 tripartite motif RBCC (2-313) (domain or fragment, UniProt O75382 2-313, looked up, human TRIM3, RBCC construct, residues 2-313; also called TRIM3 RBCC; source: E. coli BL21 (DE3), purified (Ni-NTA, His6 cleaved by HRV 3C, SEC); not shown: His6, N-terminal, cleaved) AKREDSPGPEVQPMDKQFLVCSICLDRYQCPKVLPCLHTFCERCLQNYIPAQSLTLSCPVCRQTSILPEQGVSALQNNFFISSLMEAMQQAPDGAHDPEDPHPLSVVAGRPLSCPNHEGKTMEFYCEACETAMCGECRAGEHREHGTVLLRDVVEQHKAALQRQLEAVRGRLPQLSAAIALVGGISQQLQERKAEALAQISAAFEDLEQALQQRKQALVSDLETICGAKQKVLQSQLDTLRQGQEHIGSSCSFAEQALRLGSAPEVLLVRKHMRERLAALAAQAFPERPHENAQLELVLEVDGLRRSVLNLG" observed=2
protein="human TRIM2 RING (2-95) (domain or fragment, UniProt Q9C040 2-95, looked up, human TRIM2, RING construct, residues 2-95; likely on this pET49b construct too; also called T2R; RING1; source: E. coli BL21 (DE3), purified (Ni-NTA, His6 cleaved by HRV 3C, SEC); not shown: His6, N-terminal, cleaved) ASEGTNIPSPVVRQIDKQFLICSICLERYKNPKVLPCLHTFCERCLQNYIPAHSLTLSCPVCRQTSILPEKGVAALQNNFFITNLMDVLQRTPG" observed=2

The measured values listed here are drawn from paper PMC9732051.
